Measurement Target: Mast/stem cell growth factor receptor Kit (Homo sapiens);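 note: values are mean inhibition of KIT, from the GSK PKIS dataset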
Setup Conditions: at 0.1 µM
Kindly state inhibition for each of the entries shown.
Give the quantity in %, number only.

Q) Report inhibition for `COc1cc2ncn(-c3cc(OCCc4ccccc4)c(C(N)=O)s3)c2cc1OC` please.
A) 0.95

Q) Need inhibition, item `N#Cc1ccc(Oc2nccc(-c3c(-c4ccc(F)cc4)ncn3C3CCNCC3)n2)cc1`
A) 6.17

Q) Consider the molecule shown here: `CCc1nccc2c1nc(-c1nonc1N)n2CC` What is its recorded inhibition?
A) 0.21

Q) Using the record for `NS(=O)(=O)c1ccc(N/N=C2\C(=O)Nc3ccc(-c4cnco4)cc32)cc1` , report its inhibition.
A) 5.83

Q) Give the measured inhibition of `COc1cccc(-n2cnc3c(N/N=C/c4ccncc4)ncnc32)c1` .
A) 33.4

Q) Given the molecule `NS(=O)(=O)c1ccc(Nc2cc(-c3ccc(O)c(F)c3)n[nH]2)cc1` , what is its reported inhibition?
A) 20.9

Q) Would you kindly share the measured inhibition for `COc1cc(C)c(N(C)C(=O)CN(C)C)cc1Nc1nc(Nc2cccc(F)c2C(N)=O)c2cc[nH]c2n1` ?
A) 0.03

Q) Query: inhibition; subject: `Cc1ccc(C(=O)NC2CCC2)cc1-c1ccc(C(=O)NCC2CC2)cc1`
A) 2.49

Q) Dear colleague, I am looking for the recorded inhibition of the following molecule: `COc1ccc2cc(-c3c(-c4ccncc4)nc(-c4ccc(S(C)(=O)=O)cc4C)n3C)ccc2c1`
A) 5.09

Q) Which inhibition is reported for this molecule? `C/C(Nc1ccc(S(N)(=O)=O)cc1)=C1/C(=O)Nc2ccccc21`
A) 38.4

====

Measurement Target: Ribosomal protein S6 kinase alpha-5 (Homo sapiens);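 note: mean inhibition of MSK1 reported, from a GSK PKIS inhibitor set screen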
Setup Conditions: at 0.1 µM
For each entry below, report its inhibition value.
Give a bare numeral; the unit % is implied.

Q) // lookup inhibition for `COc1cc(N2CCN(C(C)C)CC2)ccc1Nc1nc(Nc2ccc(F)cc2C(=O)NC[C@@H](O)CO)c2cc[nH]c2n1`
A) 2.19

Q) Name the reported inhibition value associated with the compound `Fc1ccc(-c2ncn(C3CCNCC3)c2-c2ccnc(Oc3ccc(F)c(F)c3)n2)cc1`
A) 0.54

Q) Which inhibition value belongs to `CNC(=O)c1cncc(/C=C/c2c(C)cccc2C)c1` ?
A) -1.22

Q) inhibition lookup needed for `CN(C)CCCNc1nccc(-c2c(-c3ccc(F)cc3)nn3cc(C(F)(F)F)ccc23)n1` , thanks.
A) 1.3

====

Kindly supply the reported inhibition values for the records listed here.
Measurement Target: High affinity nerve growth factor receptor (Homo sapiens) (UniProt P04629);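 note: each value is a mean of replicate percent inhibition readings against TRKA kinase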
Sequence (P04629 33-796 limits assumed): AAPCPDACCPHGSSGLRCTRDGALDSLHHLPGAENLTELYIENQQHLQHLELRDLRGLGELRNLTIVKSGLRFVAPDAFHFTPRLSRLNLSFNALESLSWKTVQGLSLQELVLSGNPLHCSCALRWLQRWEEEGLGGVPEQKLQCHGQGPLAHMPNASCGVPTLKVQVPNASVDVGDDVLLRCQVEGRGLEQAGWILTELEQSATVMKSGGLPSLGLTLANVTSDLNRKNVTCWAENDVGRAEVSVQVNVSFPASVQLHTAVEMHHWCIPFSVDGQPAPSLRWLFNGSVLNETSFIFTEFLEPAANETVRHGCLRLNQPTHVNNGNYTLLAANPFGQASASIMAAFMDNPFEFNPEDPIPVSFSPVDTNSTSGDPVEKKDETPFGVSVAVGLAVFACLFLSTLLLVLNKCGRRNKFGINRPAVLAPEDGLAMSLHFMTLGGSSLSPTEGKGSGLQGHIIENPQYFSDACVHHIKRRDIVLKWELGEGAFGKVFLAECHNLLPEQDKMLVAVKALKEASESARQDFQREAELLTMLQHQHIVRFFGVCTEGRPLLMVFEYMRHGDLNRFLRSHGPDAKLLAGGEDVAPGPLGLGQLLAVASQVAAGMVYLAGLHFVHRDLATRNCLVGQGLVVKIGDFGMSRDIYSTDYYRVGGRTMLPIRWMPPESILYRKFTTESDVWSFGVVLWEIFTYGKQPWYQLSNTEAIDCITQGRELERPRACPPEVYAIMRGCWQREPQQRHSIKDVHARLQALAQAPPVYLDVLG
Setup Conditions: at 0.1 µM
Write the answer as a number in %, unit excluded.

Q) # input compound: `Cc1ccc(C(=O)NC2CCC2)cc1-c1ccc(C(=O)NCC2CC2)cc1` ; wanted: its inhibition
A) -0.6

Q) Which value of inhibition has been reported for `COc1ccc(-c2ccc3c(NC(=O)C4CC4)n[nH]c3n2)cc1` in the records?
A) -0.67

Q) Any idea what its inhibition is? The compound is `O=C(Nc1ccc(Oc2ccc3[nH]c(NC(=O)c4ccccc4)nc3c2)cc1)Nc1cc(C(F)(F)F)ccc1F`
A) 5.99

Q) I'd like to know its inhibition. The compound in question is `FC(F)(F)c1cccc(Nc2nccc(-c3cnn4nc(-c5ccccc5)ccc34)n2)c1`
A) -0.16

Q) Item `COC(=O)Nc1nc2ccc(Sc3ccc(NC(=O)Nc4cc(C(F)(F)F)ccc4F)cc3)cc2[nH]1` has what recorded inhibition?
A) 62.7

Q) What does the record list as inhibition for `Fc1ccc(-c2ncn(C3CCNCC3)c2-c2ccnc(Oc3ccc(Oc4ccccc4)cc3)n2)cc1` ?
A) 3.4

Q) Field request: inhibition | item: `NC(=O)Cc1ccccc1Oc1nccc(-c2c(-c3ccc(F)cc3)ncn2C2CCNCC2)n1`
A) -0.18

Q) Report inhibition for `CCC(=O)Nc1ccc(C)c(-c2ccc(C(=O)NCC3CC3)cc2)c1` please.
A) 2

Q) Which inhibition reading was recorded for the compound `COc1cc2ncn(-c3cc(OCc4ccccc4C(F)(F)F)c(C(C)=O)s3)c2cc1OC` ?
A) 2.3

Q) Quick check: inhibition of `COc1cccc(/C=N/Nc2ncnc3c2cnn3-c2cccc(OC)c2)c1` ?
A) 1.54

Q) Look at this compound and give its reported inhibition. `CCc1cccc(CC)c1/C=C/c1cncc(C(=O)NC)c1`
A) 1.94

Q) Report inhibition for `Fc1ccc(-c2ncn(C3CCNCC3)c2-c2ccnc(Oc3ccc4c(c3)OCO4)n2)cc1` please.
A) 1.21

Q) Query: inhibition; subject: `Cc1ccc(C(=O)NC(C)C)cc1-c1ccc(C(=O)NCC2CC2)cc1`
A) -0.37

Q) Request the reported inhibition associated with `Cc1ccc(NC(=O)c2ccoc2)cc1-c1ccc(C(=O)NCC2CC2)cc1`
A) 2.04

Q) Give its inhibition value. Item: `CS(=O)(=O)CCNCc1cc(-c2cc3c(Nc4ccc(OCc5cccc(F)c5)c(Cl)c4)ncnc3s2)cs1`
A) 2.34

Q) Entry `COc1cc2ncn(-c3cc(OCCc4ccccc4)c(C(N)=O)s3)c2cc1OC` has what inhibition?
A) 1.42

Q) Any idea what inhibition was measured for COc1ccc2cc(-c3c(-c4ccncc4)nc(-c4ccc([S+](C)[O-])cc4C)n3C)ccc2c1 (configuration not stated) ?
A) 0.64

This collection of values is drawn from ChEMBL document CHEMBL1961873.
